- test-summary: CEETOX_H295R_CORTIC: CeeTox H295R High-throughput Steroidogenesis Assay for Corticosterone (CORTIC) (AID 2283437);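 further: corticosterone secreted into medium quantified by mass spectrometry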
- test-conditions: actives raise or lower the signal
Activity calls are given as the source filed them. How the source made its calls: active means hit-call score of the fitted dose curve at least 0.9, where 1 is the maximum; inactive means score below 0.9.
Thanks in advance; please answer with one of these: TRUE (active), FALSE (inactive)

Challenge: Hi, sorry to bother you, what did the test record for C#C[C@]1(O)CC[C@H]2[C@@H]3CCC4=CC(=O)CC[C@@H]4[C@H]3CC[C@@]21C ?
Response given: FALSE

Challenge: Answer briefly: the call reported for COc1ccc([N+](=O)[O-])cc1N in this assay.
Response given: TRUE

Challenge: What did the test return for C[C@@H]1C[C@H]2[C@@H]3CCC4=CC(=O)C=C[C@]4(C)[C@@]3(F)[C@@H](O)C[C@]2(C)[C@@]1(O)C(=O)COP(=O)(O)O ?
Response given: FALSE

Challenge: Assay outcome for O=C(O)c1ccccc1C(c1ccc(O)cc1)c1ccc(O)cc1 : what was it?
Response given: FALSE

Challenge: Answer briefly: the call reported for CCc1nn(C2CCCCC2)c2cc(C3(C#N)CCC(C(=O)O)CC3)ccc12 (configuration not stated) in this assay.
Response given: FALSE

Challenge: Which outcome did this test record for the molecule CCCCCCCCCCCCCCCS(=O)(=O)Oc1ccccc1 ?
Response given: FALSE

Challenge: Give the logged outcome of this assay for the following molecule: O=c1c(-c2ccc(O)cc2)coc2cc(O)ccc12
Response given: TRUE

* * *

- subject-of-test: Retinoic acid receptor RXR-alpha (Homo sapiens)
- test-summary: OT_NURR1_NURR1RXRa_1440: Odyssey Thera (OT) 24-hour HEK293T Protein Complementation Assay for Nurr1/retinoid X receptor (RXR) (AID 2283386)
Inconclusive results are not listed. Calls of active or inactive are those of the source. The calls were made as follows: active = hit-call score of the fitted dose curve at least 0.9, where 1 is the maximum; inconclusive = response in the unintended direction; inactive = score below 0.9.
test-readout: AC50

{"molecule": "C[C@@H]1C[C@H]2[C@@H]3CCC4=CC(=O)C=C[C@]4(C)[C@@]3(F)[C@@H](O)C[C@]2(C)[C@@]1(O)C(=O)COP(=O)(O)O", "subject-of-test": "Retinoic acid receptor RXR-alpha (Homo sapiens)", "AC50": "inactive"}
{"molecule": "CCOC(=O)CC(O)(CC(=O)OCC)C(=O)OCC", "subject-of-test": "Retinoic acid receptor RXR-alpha (Homo sapiens)", "AC50": "inactive"}
{"molecule": "CC(C)(C)c1cccc(C(C)(C)C)c1O", "subject-of-test": "Retinoic acid receptor RXR-alpha (Homo sapiens)", "AC50": "inactive"}
{"molecule": "O=C1OC2(c3ccccc31)c1cc(Br)c(O)c(Br)c1Oc1c2cc(Br)c(O)c1Br", "subject-of-test": "Retinoic acid receptor RXR-alpha (Homo sapiens)", "AC50": "inactive"}

The molecule listed as COc1ccc([N+](=O)[O-])cc1N has a reported AC50 of inactive

Summary for this molecule, CCCCCCCCCCCCN1CCCC1=O : AC50 is 11.7 µM (active)

AC50 for Oc1cccc(O)c1 is inactive

Form: molecule = CCCCCCCCC(=O)O ; AC50 = inactive

Lookup result for CC(C)(C)c1cc(C(C)(C)C)c(O)c(C(C)(C)C)c1 ; measured AC50: 85 µM (active)

The reported AC50 of the molecule CC[C@H](c1ccc(O)cc1)[C@@H](CC)c1ccc(O)cc1 was inactive

// AC50 value for CN1CCC[C@H]1c1cccnc1 : inactive

Summary for this molecule, OC1CCC(C2CCCCC2)CC1 (configuration not stated) : AC50 is inactive

* * *

- test-summary: CEETOX_H295R_OHPROG: CeeTox H295R High-throughput Steroidogenesis Assay for OH-Progesterone (OHPROG) (AID 2283435);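 on AC50: human adrenal H295R cells primed 48 h with 10 µM forskolin; 17alpha-hydroxyprogesterone secreted into medium measured by HPLC-MS/MS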
- test-conditions: actives raise or lower the signal
- Method: CEETOX_H295R is a cell-based, multiplexed-readout assay that uses H295R, a human adrenal gland cell line, with measurements taken at 48 hours after chemical dosing in a 96-well plate.CEETOX_H295R_OHPROG is one of 23 assay component(s) measured or calculated from the CEETOX_H295R assay. […] This assay endpoint, CEETOX_H295R_OHPROG, was analyzed with bidirectional fitting relative to DMSO as the negative control and baseline of activity. […]
Active and inactive are the calls of the source. The calls were made as follows: active = hit-call score of the fitted dose curve at least 0.9, where 1 is the maximum; inactive = score below 0.9.
test-readout: AC50

Worked examples, 5 compounds total:
{"compound": "COC(=O)CCCCC(=O)OC", "AC50": "inactive"}
{"compound": "COc1ccc([N+](=O)[O-])cc1N", "AC50": "6.07 µM (active)"}
{"compound": "CN1CCC[C@H]1c1cccnc1", "AC50": "inactive"}
{"compound": "CC#C[C@]1(O)CC[C@H]2[C@@H]3CCC4=CC(=O)CCC4=C3[C@@H](c3ccc(N(C)C)cc3)C[C@@]21C", "AC50": "0.218 µM (active)"}
{"compound": "OC1CCC(C2CCCCC2)CC1 (stereo unspecified)", "AC50": "inactive"}

C[C@@H]1C[C@H]2[C@@H]3CCC4=CC(=O)C=C[C@]4(C)[C@@]3(F)[C@@H](O)C[C@]2(C)[C@@]1(O)C(=O)COP(=O)(O)O has a reported AC50 of inactive

Query O=[N+]([O-])c1ccc(O)cc1 yields AC50 of 27.3 µM (active)

* * *

- subject-of-test: Cellular tumor antigen p53 (Homo sapiens) (UniProt P04637)
- Sequence (P04637 whole entry, looked up): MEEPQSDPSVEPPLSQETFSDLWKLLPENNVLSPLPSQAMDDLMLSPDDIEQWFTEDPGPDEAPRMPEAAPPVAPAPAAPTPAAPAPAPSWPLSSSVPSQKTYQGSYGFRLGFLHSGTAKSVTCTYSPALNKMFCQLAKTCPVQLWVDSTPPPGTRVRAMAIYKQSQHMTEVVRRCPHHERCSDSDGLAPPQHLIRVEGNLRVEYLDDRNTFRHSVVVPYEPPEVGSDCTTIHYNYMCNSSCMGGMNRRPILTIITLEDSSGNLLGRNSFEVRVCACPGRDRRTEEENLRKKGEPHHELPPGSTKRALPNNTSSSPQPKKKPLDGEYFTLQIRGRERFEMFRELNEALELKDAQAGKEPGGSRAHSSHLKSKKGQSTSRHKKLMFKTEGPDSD
- test-summary: TOX21_p53_BLA_p5_ratio: Tox21 HCT-116 p53 Agonism Beta-lactamase Assay, Ratio, Phase 5 (AID 2283599)
Results filed as inconclusive are left out. Calls of active or inactive are those of the source. Rule for the calls: active = hit-call score of the fitted dose curve at least 0.9, where 1 is the maximum; inconclusive = response in the unintended direction; inactive = score below 0.9.
test-readout: outcome

{"compound": "NC(=O)N(O)[C@@H]1C=C[C@H](Oc2cccc(Oc3ccc(F)cc3)c2)C1", "subject-of-test": "Cellular tumor antigen p53 (Homo sapiens) (UniProt P04637)", "result": "inactive"}
{"compound": "COCC(C)O (stereo not drawn)", "subject-of-test": "Cellular tumor antigen p53 (Homo sapiens) (UniProt P04637)", "result": "inactive"}
{"compound": "CC[C@H](C)[C@@H](C(=O)O)n1sc2ccccc2c1=O", "subject-of-test": "Cellular tumor antigen p53 (Homo sapiens) (UniProt P04637)", "result": "inactive"}
{"compound": "CC(=O)CC(C)(C)O", "subject-of-test": "Cellular tumor antigen p53 (Homo sapiens) (UniProt P04637)", "result": "inactive"}
{"compound": "Oc1cccc(O)c1", "subject-of-test": "Cellular tumor antigen p53 (Homo sapiens) (UniProt P04637)", "result": "inactive"}

Observed outcome, Cellular tumor antigen p53 (Homo sapiens) (UniProt P04637), CC(C)(C)c1cccc(C(C)(C)C)c1O : inactive

Hey, Cellular tumor antigen p53 (Homo sapiens) (UniProt P04637) data for CC(O)C(=O)O (stereo not drawn) : outcome came out at inactive

Tested on Cellular tumor antigen p53 (Homo sapiens) (UniProt P04637), the item OC1CCCCC1 showed outcome equal to inactive

* * *

- subject-of-test: Estrogen receptor (Homo sapiens)
- test-summary: OT_ERa_GFPERaERE_0120: Odyssey Thera (OT) 2-hour HeLa Transcription Induction Assay for Estrogen Receptor (AID 2283382)
Active and inactive are the calls of the source. The calls were made as follows: active = hit-call score of the fitted dose curve at least 0.9, where 1 is the maximum; inconclusive = response in the unintended direction; inactive = score below 0.9.
Can you answer with just one of these options? 1.0 (active), 0.0 (inactive)

Reference set (3 entries):
{"molecule": "N#C[C@@H]1CC(F)(F)CN1C(=O)CNC1CC2CCC(C1)N2c1ncccn1 (some centres not stated)", "assigned-class": 0.0}
{"molecule": "CC(O)CO (configuration not stated)", "assigned-class": 0.0}
{"molecule": "CCOC(=O)CC(O)(CC(=O)OCC)C(=O)OCC", "assigned-class": 0.0}

Challenge: Fill in: this test's call for Cc1ccc(S(=O)(=O)O)c(C)c1 is ___
Response given: 0.0

* * *

- Read-out: Potassium channel subfamily K member 1 (KCNK1), KCNK1 (gene 3775)
- test-summary: LTEA_HepaRG_KCNK1: Life Technologies and Expression Analysis (LTEA) Assay for Potassium channel subfamily K member 1 (KCNK1) using HepaRG (AID 2283511)
- test-conditions: mRNA level, 48 h; actives raise or lower the signal
The source made the active and inactive calls. Rule for the calls: active = hit-call score of the fitted dose curve at least 0.9, where 1 is the maximum; inactive = score below 0.9.
Your reply should match one of these outcome classes. TRUE (active), FALSE (inactive)

{"compound": "COCC(C)OCC(C)O (configuration not stated)", "assigned-class": "FALSE"}
{"compound": "CCOC(=O)CC(O)(CC(=O)OCC)C(=O)OCC", "assigned-class": "FALSE"}
{"compound": "CCCCC(CC)COC(=O)CCCCC(=O)OCC(CC)CCCC (configuration not stated)", "assigned-class": "FALSE"}
{"compound": "CCN(CC)CCNc1ccc(CNC=O)c2sc3ccc(OC)cc3c(=O)c12", "assigned-class": "TRUE"}
{"compound": "O=[N+]([O-])c1ccc(O)cc1", "assigned-class": "FALSE"}
{"compound": "CC1=C(/C=C/C(C)=C/C=C/C(C)=C/C(=O)O)C(C)(C)CCC1", "assigned-class": "TRUE"}

Pending compound:
Challenge: Outcome logged for Oc1cc2ccccc2c2ccccc12 in this assay:
Response given: FALSE
